Source listed as patent US10689383B2.

Target: yeast Gal4-DNA binding domain fused to the ligand binding domain of human RORγ (Homo sapiens, UniProt P51449)
Construct: host or cells: HEK293t
Sequence (P51449 269-508 limits assumed): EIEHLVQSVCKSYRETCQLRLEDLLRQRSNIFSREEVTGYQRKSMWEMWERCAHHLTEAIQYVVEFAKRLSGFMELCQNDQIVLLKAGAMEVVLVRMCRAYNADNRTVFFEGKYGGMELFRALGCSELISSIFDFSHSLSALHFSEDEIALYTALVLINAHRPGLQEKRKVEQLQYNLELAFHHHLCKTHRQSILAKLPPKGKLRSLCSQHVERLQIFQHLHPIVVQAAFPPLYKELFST
Assay: RORγ Reporter Assay (Gal4)
Type: cell-based
Details: RORγ Reporter Assay (Gal4) at 1 μM; values given as lower bounds of ranges
Catalogue of compounds with associated Gal4 activity range @ 1 μM (% inhibition)

Below: 5 compounds and their reported Gal4 activity range @ 1 μM (% inhibition).
compound	observed_value
COC(=O)C1(CNc2ncnc(N3CCOCC3c3ccc(C(F)(F)F)cc3)c2F)CCOCC1 (stereo not drawn)	>80 % inhibition
OCC1(CNc2ncnc(N3CC(F)(F)CC3c3ccc(C(F)(F)F)cc3)c2F)COC1 (stereo not drawn)	>80 % inhibition
Fc1c(NCc2ccc(Cn3cncn3)cc2)ncnc1N1CCCC1c1ccc(C(F)(F)F)cc1 (stereo not drawn)	>80 % inhibition
NC(=O)Cc1ccc(CNc2ncnc(N3CCOC[C@@H]3c3ccc(C(F)(F)F)cc3)c2F)cc1	>80 % inhibition
O=S1(=O)CCC(O)(CNc2ncnc(N3CCC[C@@H]3c3ccc(C(F)(F)F)cc3)c2F)CC1	>80 % inhibition

For this compound ( O=S(=O)(NC1CC1)c1ccc(CNc2ncnc(N3CCC[C@@H]3c3ccc(C(F)(F)F)cc3)c2F)cc1 ), measured Gal4 activity range @ 1 μM (% inhibition) is >80 % inhibition

For this compound ( CC(C)(C)C[C@@H](Nc1ncnc(N2CCCC2c2ccc(OC(C)(C)C)cc2)c1F)C(N)=O (stereo partly drawn) ), measured Gal4 activity range @ 1 μM (% inhibition) is >80 % inhibition

For this compound ( CC1(CNc2ncnc(N3CCOC[C@@H]3c3ccc(C(F)(F)F)cc3)c2F)CCCCC1O (stereo partly drawn) ), measured Gal4 activity range @ 1 μM (% inhibition) is >80 % inhibition

For this compound ( Cc1ccc(CNc2nccc(N3CCCC3c3ccc(C(F)(F)F)cc3)c2F)cn1 (stereo not drawn) ), measured Gal4 activity range @ 1 μM (% inhibition) is >50 % inhibition

* * *

Catalogue of compounds with associated pIC50
Molecular target: human RORγt (Ligand Binding Domain) (Homo sapiens, UniProt P51449)
Construct: purchased Crelux (Planegg, Germany) batch no PC5032-1
Sequence (P51449 269-508 limits assumed): as above
Assay: Fluorescence Polarization (FP) Assay
Details: Fluorescence Polarization (FP) Assay; values given as upper bounds of activity ranges; read-out: FP activity range
pIC50: −log10 of the molar value.

Below: 10 compounds and their reported pIC50.
compound	subject_of_test	value_type	observed_value
Cc1cccc(CNc2ncnc(N3CCCC3c3ccc(C(F)(F)F)cc3)c2F)n1 (centres unmarked) [Example 132]	human RORγt (Ligand Binding Domain) (Homo sapiens, UniProt P51449)	pIC50	> 5.00
CC1(CNc2ncnc(N3CCOC[C@@H]3c3ccc(C(F)(F)F)cc3)c2F)CCCCC1O (some centres unmarked) [Example 295]	human RORγt (Ligand Binding Domain) (Homo sapiens, UniProt P51449)	pIC50	> 6.30
Fc1c(NCc2ccc(N3CCOCC3)cc2)ncnc1N1CCCC1c1ccc(C(F)(F)F)cc1 (centres unmarked) [Example 56]	human RORγt (Ligand Binding Domain) (Homo sapiens, UniProt P51449)	pIC50	> 5.70
Cc1ccc(COc2ncnc(N3CCCC3c3ccc(C(F)(F)F)c(F)c3)c2F)cn1 (centres unmarked) [Example 73]	human RORγt (Ligand Binding Domain) (Homo sapiens, UniProt P51449)	pIC50	> 5.70
O=S(=O)(NC1CC1)c1ccc(CNc2ncnc(N3CCOC[C@@H]3c3ccc(C(F)(F)F)cc3)c2F)cc1 [Example 236]	human RORγt (Ligand Binding Domain) (Homo sapiens, UniProt P51449)	pIC50	> 6.30
NC(=O)Cc1ccc(CNc2ncnc(N3CCCC3c3ccc4ccccc4c3)c2F)cc1 (centres unmarked) [Example 312]	human RORγt (Ligand Binding Domain) (Homo sapiens, UniProt P51449)	pIC50	> 6.30
OCC1(CNc2ncnc(N3CCC[C@@H]3c3ccc(C(F)(F)F)cc3)c2F)COC1 [Example 228]	human RORγt (Ligand Binding Domain) (Homo sapiens, UniProt P51449)	pIC50	> 6.30
Fc1c(NCc2ccsc2)ncnc1N1CCC[C@@H]1c1ccc(C(F)(F)F)cc1 [Example 185]	human RORγt (Ligand Binding Domain) (Homo sapiens, UniProt P51449)	pIC50	> 6.00
CC(C)(CCS(C)(=O)=O)CNc1ncnc(N2CCOC[C@@H]2c2ccc(C(F)(F)F)cc2)c1F [Example 294]	human RORγt (Ligand Binding Domain) (Homo sapiens, UniProt P51449)	pIC50	> 5.00
CC(C)(C)C[C@@H](Nc1ccnc(N2CCCC2c2ccc(C(F)(F)F)cc2)c1F)C(N)=O (some centres unmarked) [Example 39]	human RORγt (Ligand Binding Domain) (Homo sapiens, UniProt P51449)	pIC50	> 5.00

For this compound ( CC(C)(C)C[C@H](CO)Nc1ncnc(N2CCCC2c2ccc(C(F)(F)F)cc2)c1F (some centres unmarked) [Example 30] ), measured pIC50 is > 6.30

For this compound ( Fc1c(NCc2cccs2)ncnc1N1CCC[C@@H]1c1ccc(C(F)(F)F)cc1 [Example 203] ), measured pIC50 is > 5.70

For this compound ( Fc1c(NCc2ccc(-c3nnn[nH]3)cc2)ncnc1N1CCCC1c1ccc(C(F)(F)F)cc1 (centres unmarked) [Example 138] ), measured pIC50 is > 6.30
